System: A549
Assay type: cell-based, human
condition details: 72 h
Excerpt: Cell culture: MCF-7/MD-MAB-231 (human breast cancer cell line ATCC HTB-22/HTB-26), Hep G2 (human liver cancer cell line ATCC HB-8065), Hela (human cervical carcinoma cell line ATCC CCL-2), A459 (human lung cancer cell line ATCC CCL-185), and HUVEC (primary umbilical vein endothelial cell line ATCC PCS-100-010) were obtained from the Jinan Department of Pathology, University School of Medicine (Jinan University, Guangzhou, China). […]
Square brackets hold non-standard residues; d marks the D form. Peptide text beside a SMILES is read from it.
Measured IC50 A549, listed per entry for reference.

compound	tested on	IC50 A549
CC(C)C[C@@H]1NC(=O)[C@@H]2CCCN2C(=O)[C@@H](CC(C)C)NC(=O)[C@@H](CC(C)C)NC(=O)[C@@H]2CCCN2C1=O [Compound Z-6, Cyclo (D-Leu-Pro-Leu-Pro-D-Leu)] (cyclo(LP[dL][dL]P))	A549	5.96 ± 0.41 µg/mL
CC(C)C[C@@H]1NC(=O)[C@@H]2CCCN2C(=O)[C@@H](CC(C)C)NC(=O)[C@@H]2CCCN2C(=O)[C@@H](CC(C)C)NC1=O [Compound Z-7, Cyclo (Leu-Pro-D-Leu-Pro-D-Leu)] (cyclo(L[dL]P[dL]P))	A549	9.97 ± 1.00 µg/mL
CC(C)C[C@@H]1NC(=O)[C@@H]2CCCN2C(=O)[C@H](CC(C)C)NC(=O)[C@@H]2CCCN2C(=O)[C@@H](CC(C)C)NC1=O [Compound Z-4, Cyclo (Leu-Pro-D-Leu-Pro-Leu)] (cyclo(LPL[dL]P))	A549	9.85 ± 0.95 µg/mL
